The following molecules are shown together with reported % Inhibition of Blood Platelet Aggregation Induced by Collagen values.
Tested on: blood platelet aggregation
PROTOCOL DETAILS: Oral administration to rabbits; inhibition of blood platelet aggregation induced by ADP or collagen in platelet rich plasma (Example 56)
Type: in vivo
REPORTED CONDITIONS: lowest amount of collagen giving maximal aggregation; rabbit, oral single dose 25 mg./kg.; 1 hr.
Where a name gives a salt, the structure may show the parent alone.
Unit % implied. Number only.

CCCC(=N)N/C=C/c1ccc(Cl)c(Cl)c1 [HYDROCHLORIDE] : 30

Entry CC(C)(C)C(=N)N/C=C/c1ccc(Cl)c(Cl)c1 , % Inhibition of Blood Platelet Aggregation Induced by Collagen reported as 78

The molecule listed as N=C(N/C=C/c1ccc(Cl)c(Cl)c1)C1CC1 [HYDROCHLORIDE] has a reported % Inhibition of Blood Platelet Aggregation Induced by Collagen of 65

Item: CC(=N)N/C=C/c1ccc(Cl)c(Cl)c1 [HYDROCHLORIDE] | % Inhibition of Blood Platelet Aggregation Induced by Collagen: 67

---

Test system: blood platelet aggregation
PROTOCOL DETAILS: Oral administration to rabbits; inhibition of blood platelet aggregation induced by ADP or collagen in platelet rich plasma (Example 56)
Assay type: in vivo
REPORTED CONDITIONS: ADP 0.25-1.0 microgram; rabbit, oral single dose 25 mg./kg.; 24 hrs.
Where a name gives a salt, the structure may show the parent alone.
Entries and their % Inhibition of Blood Platelet Aggregation Induced by ADP values follow.
Your answer should be a plain number; it is taken to be in %.

Field: example entries. Status: answers known.
CCCC(=N)N/C=C/c1ccc(Cl)c(Cl)c1 [HYDROCHLORIDE] : 0
CC(C)(C)C(=N)N/C=C/c1ccc(Cl)c(Cl)c1 : 0
N=C(N/C=C/c1ccc(Cl)c(Cl)c1)c1ccccc1 [HYDROCHLORIDE] : 0

Entry CC(=N)N/C=C/c1ccc(Cl)c(Cl)c1 [HYDROCHLORIDE] , % Inhibition of Blood Platelet Aggregation Induced by ADP reported as 0

Input N=C(N/C=C/c1ccc(Cl)c(Cl)c1)C1CC1 [HYDROCHLORIDE] . Output % Inhibition of Blood Platelet Aggregation Induced by ADP: 5

---

Test system: blood platelet aggregation
PROTOCOL DETAILS: Oral administration to rabbits; inhibition of blood platelet aggregation induced by ADP or collagen in platelet rich plasma (Example 56)
Format: in vivo
REPORTED CONDITIONS: lowest amount of collagen giving maximal aggregation; rabbit, oral single dose 25 mg./kg.; 2 hrs.
Where a name gives a salt, the structure may show the parent alone.
MEASURED ENDPOINT: % Inhibition of Blood Platelet Aggregation Induced by Collagen (%)
# unit: % | format: bare number

Known % Inhibition of Blood Platelet Aggregation Induced by Collagen results, listed for orientation:
N=C(N/C=C/c1ccc(Cl)c(Cl)c1)c1ccccc1 [HYDROCHLORIDE] : 65
CC(=N)N/C=C/c1ccc(Cl)c(Cl)c1 [HYDROCHLORIDE] : 50

Hey, blood platelet aggregation data for N=C(N/C=C/c1ccc(Cl)c(Cl)c1)C1CC1 [HYDROCHLORIDE] : % Inhibition of Blood Platelet Aggregation Induced by Collagen came out at 85

Considering CC(C)(C)C(=N)N/C=C/c1ccc(Cl)c(Cl)c1 , its % Inhibition of Blood Platelet Aggregation Induced by Collagen with blood platelet aggregation was recorded as 80

The reported % Inhibition of Blood Platelet Aggregation Induced by Collagen value, blood platelet aggregation, for CCCC(=N)N/C=C/c1ccc(Cl)c(Cl)c1 [HYDROCHLORIDE] reads 92

All values here come from patent US4052455A.
